- system: T1, mouse KDR (Flk-1)/Fc (Cat. #443-KD/CF, R&D Systems, Inc.) (mouse, UniProt P35918 20-762)
- T1 construct: Bought reagent; also called mouse VEGFR2; KDR mouse ortholog; not shown: Fc of the bought fusion protein
- T1 sequence (P35918 20-762 limits assumed): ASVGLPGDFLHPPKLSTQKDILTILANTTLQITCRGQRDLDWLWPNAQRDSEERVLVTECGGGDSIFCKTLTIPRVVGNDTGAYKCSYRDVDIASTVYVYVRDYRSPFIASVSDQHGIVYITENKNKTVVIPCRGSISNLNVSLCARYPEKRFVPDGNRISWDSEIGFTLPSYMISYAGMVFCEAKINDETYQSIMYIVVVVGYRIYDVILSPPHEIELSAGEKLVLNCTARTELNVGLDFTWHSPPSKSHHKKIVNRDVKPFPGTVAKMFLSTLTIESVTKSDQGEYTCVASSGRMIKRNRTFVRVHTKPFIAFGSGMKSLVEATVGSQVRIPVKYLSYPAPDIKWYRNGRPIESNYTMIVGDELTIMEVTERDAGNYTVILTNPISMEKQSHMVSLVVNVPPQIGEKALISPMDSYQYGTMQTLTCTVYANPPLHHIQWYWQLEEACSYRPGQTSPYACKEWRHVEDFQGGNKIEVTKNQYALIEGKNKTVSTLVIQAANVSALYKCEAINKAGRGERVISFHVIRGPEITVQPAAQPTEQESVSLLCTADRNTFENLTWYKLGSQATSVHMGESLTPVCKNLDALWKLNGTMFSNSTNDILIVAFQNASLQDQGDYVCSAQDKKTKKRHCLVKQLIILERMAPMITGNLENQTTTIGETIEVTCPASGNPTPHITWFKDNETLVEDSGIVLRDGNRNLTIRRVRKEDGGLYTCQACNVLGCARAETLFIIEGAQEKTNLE
- experimental details: ELISA, Flk-1 coat 5 ug/mL, antibody 0.1 ug/mL
parameter measured: ELISA reading
# respond with the number and nothing more

Quick note, ELISA reading for 32F4 (antibody, V domains shown, Fully human monoclonal antibody from a XenoMouse hybridoma (IgG2 or IgG4 strain), purified) VH: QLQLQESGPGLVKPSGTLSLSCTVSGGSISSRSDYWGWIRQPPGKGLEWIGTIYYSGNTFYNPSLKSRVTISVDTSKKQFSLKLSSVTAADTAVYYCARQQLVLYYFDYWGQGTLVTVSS VL: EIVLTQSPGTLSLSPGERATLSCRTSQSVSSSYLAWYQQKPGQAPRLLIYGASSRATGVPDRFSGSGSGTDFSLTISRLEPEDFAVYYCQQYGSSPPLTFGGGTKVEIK landed at 2

Quick note, ELISA reading for 33E1 (antibody, V domains shown, Fully human monoclonal antibody from a XenoMouse hybridoma (IgG2 or IgG4 strain), purified) VH: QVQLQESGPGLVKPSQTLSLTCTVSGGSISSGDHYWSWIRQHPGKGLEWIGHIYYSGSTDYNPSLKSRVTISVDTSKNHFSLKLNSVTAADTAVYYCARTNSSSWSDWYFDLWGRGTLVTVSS VL: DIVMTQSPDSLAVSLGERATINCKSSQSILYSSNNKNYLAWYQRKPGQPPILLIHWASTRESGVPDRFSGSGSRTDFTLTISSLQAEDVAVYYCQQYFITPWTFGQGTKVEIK landed at 1.47

Quick note, ELISA reading for 31E11 (antibody, V domains shown, Fully human monoclonal antibody from a XenoMouse hybridoma (IgG2 or IgG4 strain), purified) VH: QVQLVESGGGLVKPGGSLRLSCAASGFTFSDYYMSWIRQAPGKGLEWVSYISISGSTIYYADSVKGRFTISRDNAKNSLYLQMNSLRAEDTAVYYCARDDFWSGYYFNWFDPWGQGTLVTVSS VL: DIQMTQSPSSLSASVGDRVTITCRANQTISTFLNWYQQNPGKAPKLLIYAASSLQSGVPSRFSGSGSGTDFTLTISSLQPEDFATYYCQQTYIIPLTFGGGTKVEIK landed at 2.37
